- System: LPS-induced nitric oxide (NO) production in RAW 264.7 cells
- protocol.summary: Nitric oxide production in LPS-stimulated macrophages (Griess)
- Type: cell-based, mouse
- run.conditions: Mus musculus; LPS-stimulated RAW264.7, nitrite 24 h after LPS
- Description: Marcophages (2×10^5 cells/well in 96-well plate) were treated with compounds for 1 h, then incubated further for 24 h with or without the presence of […] LPS in the cultural medium. Nitrite levels in cell culture medium were determined by the Griess reaction method. In parallel to the Griess assays, macrophage cell viabilities were determined using the MTT based colorimetric assay. […]
IC50 overview
measured.metric: IC50 (µM)

1. C=C1C(=O)OC2CC3=C[C@@H](C/C(C)=C/C(OC(=O)Cc4ccc(OC)cc4)[C@H]12)OC3=O (stereo partly shown) [DETD-44]; 3.4
2. C=C1C(=O)OC2CC3=C[C@@H](C/C(C)=C/C(OC(=O)C(C)CCC)[C@H]12)OC3=O (stereo partly shown) [DETD-20]; 4.2
3. C=C1C(=O)OC2CC3=C[C@@H](C/C(C)=C/C(OC(=O)/C=C/c4cc(OC)c(OC)c(OC)c4)[C@H]12)OC3=O (stereo partly shown) [DETD-7]; 2.2

---

- Test system: B16-F10 (NRAS mutation)
- protocol.summary: MTT cell viability assay, B16-F10 melanoma
- Format: cell-based
- run.conditions: Mus musculus, B16-F10, 24 h, 24 h, read-out: IC50 on cell viability, B16-F10 (NRAS mutation)
IC50 less than 6 µM is Met; IC50 greater than or equal to 6 µM is Not met.

1) C=C1C(=O)O[C@H]2CC3=C[C@@H](C/C(C)=C/[C@@H](OC(=O)/C=C/c4ccccc4)[C@H]12)OC3=O; Met
2) C=C1C(=O)OC2CC3=C[C@@H](C/C(C)=C/[C@@H](OC(=O)Cc4coc5ccccc45)[C@H]12)OC3=O (some centres unmarked); Not met
3) C=C1C(=O)OC2CC3=C[C@@H](C/C(C)=C/C(OC(=O)c4cccs4)[C@H]12)OC3=O (some centres unmarked); Met
4) C=C1C(=O)OC2CC3=C[C@@H](C/C(C)=C/C(OC(=O)C(Cl)Cl)[C@H]12)OC3=O (some centres unmarked); Not met
5) C=C1C(=O)OC2CC3=C[C@@H](C/C(C)=C/C(OC(=O)/C=C/c4ccc(OC)c(OC)c4)[C@H]12)OC3=O (some centres unmarked); Not met
6) C=C1C(=O)OC2CC3=C[C@@H](C/C(C)=C/C(OC(=O)/C=C/c4cccc(OCC)c4)[C@H]12)OC3=O (some centres unmarked); Not met
7) C=C1C(=O)OC2CC3=C[C@@H](C/C(C)=C/C(OC(=O)C4CC4)[C@H]12)OC3=O (some centres unmarked); Not met
8) C=C1C(=O)OC2CC3=C[C@@H](C/C(C)=C/C(OC(=O)C4CCCCC4)[C@H]12)OC3=O (some centres unmarked); Met
9) C=C1C(=O)OC2CC3=C[C@@H](C/C(C)=C/[C@@H](OC(=O)/C=C/c4ccc(OCC)cc4)[C@H]12)OC3=O (some centres unmarked); Met
10) C=C1C(=O)OC2CC3=C[C@@H](C/C(C)=C/C(OC(=O)/C=C/c4cccc(OC)c4)[C@H]12)OC3=O (some centres unmarked); Met
11) C=C(C)C(=O)OC1/C=C(\C)C[C@@H]2C=C(CC3OC(=O)C(=C)[C@@H]13)C(=O)O2 (some centres unmarked); Met
12) C=C1C(=O)OC2CC3=C[C@@H](C/C(C)=C/C(O)[C@H]12)OC3=O (some centres unmarked); Not met
13) C=C1C(=O)OC2CC3=C[C@@H](C/C(C)=C/C(OC(=O)CCc4cccc5ccccc45)[C@H]12)OC3=O (some centres unmarked); Not met
14) C=C1C(=O)OC2CC3=C[C@@H](C/C(C)=C/C(OC(=O)c4cc5ccccc5o4)[C@H]12)OC3=O (some centres unmarked); Met
15) C=C1C(=O)OC2CC3=C[C@@H](C/C(C)=C/[C@H](OC(=O)Cc4cccc5ccccc45)[C@H]12)OC3=O (some centres unmarked); Not met
16) C=C1C(=O)OC2CC3=C[C@@H](C/C(C)=C/C(OC(=O)c4ccc(C)cc4)[C@H]12)OC3=O (some centres unmarked); Met
17) C=C1C(=O)OC2CC3=C[C@@H](C/C(C)=C/C(OC(=O)C(CC)CCCC)[C@H]12)OC3=O (some centres unmarked); Not met
18) C=C1C(=O)OC2CC3=C[C@@H](C/C(C)=C/C(OC(=O)C=C(C)CCC=C(C)C)[C@H]12)OC3=O (some centres unmarked); Not met
19) C=C1C(=O)OC2CC3=C[C@@H](C/C(C)=C/C(OC(=O)/C=C/CC)[C@H]12)OC3=O (some centres unmarked); Not met
20) C=C1C(=O)O[C@H]2CC3=C[C@@H](C/C(C)=C/[C@@H](OC(=O)Cc4cccc5ccccc45)[C@H]12)OC3=O; Met
21) C=C1C(=O)OC2CC3=C[C@@H](C/C(C)=C/C(OC(=O)/C(C)=C/CC)[C@H]12)OC3=O (some centres unmarked); Met
22) C=C1C(=O)OC2CC3=C[C@@H](C/C(C)=C/C(OC(=O)C(C)CCCC)[C@H]12)OC3=O (some centres unmarked); Not met
23) C=C1C(=O)OC2CC3=C[C@@H](C/C(C)=C/C(OC(=O)CC(C)CC)[C@H]12)OC3=O (some centres unmarked); Not met
24) C=C1C(=O)OC2CC3=C[C@@H](C/C(C)=C/C(OC(=O)[C@@H](C)c4ccc5cc(OC)ccc5c4)[C@H]12)OC3=O (some centres unmarked); Met
25) C=C1C(=O)OC2CC3=C[C@@H](C/C(C)=C/C(OC(=O)/C=C/c4cccc(C(F)(F)F)c4)[C@H]12)OC3=O (some centres unmarked); Not met
26) C=C1C(=O)OC2CC3=C[C@@H](C/C(C)=C/C(OC(=O)/C=C/c4ccc(Cl)cc4)[C@H]12)OC3=O (some centres unmarked); Met
27) C=C1C(=O)OC2CC3=C[C@@H](C/C(C)=C/C(OC(=O)/C=C/c4ccc(OC)cc4)[C@H]12)OC3=O (some centres unmarked); Met

---

IC50 overview
- System: HTB-68 (NRAS mutation)
- protocol.summary: MTT cell viability assay, HTB-68 melanoma
- Assay type: cell-based, human
- run.conditions: Homo sapiens, 24 h
measured.metric: IC50 (µM)

1) C=C1C(=O)OC2CC3=C[C@@H](C/C(C)=C/C(OC(=O)/C=C/c4cc(OC)c(OC)c(OC)c4)[C@H]12)OC3=O (stereo partly shown); 8.4
2) C=C1C(=O)OC2CC3=C[C@@H](C/C(C)=C/C(OC(=O)Cc4ccc5cc(OC)ccc5c4)[C@H]12)OC3=O (stereo partly shown); 4.5
3) C=C1C(=O)OC2CC3=C[C@@H](C/C(C)=C/[C@@H](OC(=O)Cc4coc5ccccc45)[C@H]12)OC3=O (stereo partly shown); 4.8

---

- System: TS/A (ER+, Her2−) murine mammary cancer cells
- protocol.summary: MTT cell viability assay, TS/A cells
- Format: cell-based
- run.conditions: Mus musculus, Table 5, 24 h, read-out: IC50 viability TS/A (mouse) (Breast)
pIC50: −log10 of the molar value.
measured.metric: pIC50

1) C=C1C(=O)O[C@H]2CC3=C[C@@H](C/C(C)=C/[C@@H](OC(=O)c4ccc(OC)cc4)[C@H]12)OC3=O [DETD-32]; 5.72
2) C=C1C(=O)OC2CC3=C[C@@H](C/C(C)=C/C(OC(=O)/C=C/c4cccc(OC)c4)[C@H]12)OC3=O (some centres unmarked) [DETD-39]; 6.10
3) C=C(C)C(=O)O[C@H]1CC2=C[C@@H](C/C(C)=C/[C@H]3OC(=O)C(=C)[C@H]13)OC2=O [DET, deoxyelephantopin, reference compound]; 5.59
4) C=C1C(=O)O[C@H]2CC3=C[C@@H](C/C(C)=C/[C@@H](OC(=O)/C=C/c4ccccc4)[C@H]12)OC3=O [DETD-6]; 5.74
5) C=C1C(=O)O[C@H]2CC3=C[C@@H](C/C(C)=C/[C@@H](OC(=O)Cc4cccc5ccccc45)[C@H]12)OC3=O [DETD-35]; 5.77

---

- Test system: LPS-induced nitric oxide (NO) production in RAW 264.7 cells
- protocol.summary: Nitric oxide production in LPS-stimulated macrophages (Griess)
- Assay type: cell-based, mouse
- run.conditions: Mus musculus; LPS-stimulated RAW264.7, nitrite 24 h after LPS
measured.metric: IC50 (nM)

1) C=C(CC)C(=O)OC1/C=C(\C)C[C@@H]2C=C(CC3OC(=O)C(=C)[C@@H]13)C(=O)O2 (stereo partly shown); 3800
2) C=C1C(=O)OC2CC3=C[C@@H](C/C(C)=C/[C@@H](OC(=O)[C@@H](OC)c4ccc5ccccc5c4)[C@H]12)OC3=O (stereo partly shown); 3000
3) C=C1C(=O)O[C@H]2CC3=C[C@@H](C/C(C)=C/[C@@H](OC(=O)c4ccc(OC)cc4)[C@H]12)OC3=O; 2600
4) C=C1C(=O)OC2CC3=C[C@@H](C/C(C)=C/C(OC(=O)/C=C/CC)[C@H]12)OC3=O (stereo partly shown); 4900
5) C=C1C(=O)OC2CC3=C[C@@H](C/C(C)=C/C(OC(=O)/C(C)=C/CC)[C@H]12)OC3=O (stereo partly shown); 2400
6) C=C1C(=O)OC2CC3=C[C@@H](C/C(C)=C/[C@@H](OC(=O)C(C)(OC)c4ccc5ccccc5c4)[C@H]12)OC3=O (stereo partly shown); 2900
